Target: human FLAP (Homo sapiens (Human), UniProt P20292)
Sequence (P20292 whole entry): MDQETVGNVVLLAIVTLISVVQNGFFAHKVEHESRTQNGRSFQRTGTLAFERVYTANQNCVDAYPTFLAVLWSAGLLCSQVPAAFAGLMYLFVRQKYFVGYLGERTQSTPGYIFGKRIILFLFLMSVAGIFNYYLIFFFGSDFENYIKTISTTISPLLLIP
Test: FLAP binding assay (HTRF format)
Details: human FLAP wild type membranes, HTRF format; Table 6 (additional runs)
pKi: −log10 of the molar value. Structures can show the parent of a compound that is named as a salt.
measured.metric: pKi

>>> readout_number("Nc1cnc(-c2ccc(CC3CCCCC3)c(O)c2F)cn1")
7.34
>>> readout_number("Nc1cnc(-c2ccc(C3CCC3)c(OCc3ccccc3)c2)cn1")
5.98
>>> readout_number("Nc1ncc(-c2ccc(C3CCC3)c(O)c2F)cn1 [Intermediate E]")
7.00
>>> readout_number("CS(=O)(=O)c1ccnc(Oc2c(C3CCC3)ccc(-c3cnc(N)cn3)c2F)n1")
8.33
>>> readout_number("Nc1cnc(-c2ccc(C3CCC3)c(Oc3ccc(S(F)(F)(F)(F)F)cc3)c2F)cn1")
7.27

(1) Nc1cnc(-c2ccc(C3CCC3)c(OCc3ncccn3)c2F)cn1
(2) Cc1nc(COc2c(C3CCC3)ccc(-c3cnc(N)cn3)c2F)cs1 [Example 287, trifluoroacetic acid salt]
(3) Nc1cnc(-c2ccc(C3CCC3)c(OCC3CCNCC3)c2F)cn1
Ordering: ascending pKi. Answer by listing the labels in the order asked for.
3, 1, 2
(3: 6.06, 1: 6.97, 2: 7.75)
